Taken from ChEMBL document CHEMBL4680282.

- TARGET: Glutamate [NMDA] receptor
- ASSAY EXPLANATION: Displacement of [3H]-MK801 from NMDA receptor in human frontal cortex in presence of Mg2+ by scintillation counting method
- Assay type: tissue-based
READOUT NAME: Ki (nM)
Express the result in nM but write the number alone.

**Query** I would be grateful if you could share the reported Ki for CNC1(c2ccccc2Cl)CCCCC1=O (stereo unspecified) .
**Result** 180

----------
- ASSAY EXPLANATION: Elimination half life in Wistar rat at 20 mg/kg, iv by LC-MS analysis
- Type: ADME, organism-based
- CONDITION SUMMARY: in vivo, read-out: beta t1/2 (converted)
READOUT NAME: half-life (h)
Give a bare numeral; the unit h is implied.

**Query** # input compound: CNC1(c2ccccc2Cl)CCCCC1=O (stereo unspecified) ; wanted: its half-life
**Result** 8

----------
- ASSAY EXPLANATION: Aqueous solubility of the compound
- Type: physicochemical
READOUT NAME: solubility (mg/mL)
// note: answer is a bare numeric in mg/mL

**Query** Would you kindly share the measured solubility for CNC1(c2ccccc2Cl)CCCCC1=O (stereo unspecified) ?
**Result** 0.046

----------
- TARGET: Glutamate [NMDA] receptor
- ASSAY EXPLANATION: Displacement of [3H]-MK801 from NMDA receptor in human cortex incubated for 2 hrs in presence of Mg2+ by scintillation counting method
- Type: tissue-based
READOUT NAME: pKi
In textbook form, pKi equals minus log to base ten of the concentration in mol/L.

**Query** Reported pKi for Glutamate [NMDA] receptor, given CNC1(c2ccccc2Cl)CCCCC1=O (stereo unspecified) ?
**Result** 6.74

----------
- ASSAY EXPLANATION: Displacement of [3H]-MK801 from NMDA receptor in ICR Harlan mouse brain homogenate incubated for 45 mins by liquid scintillation spectrometry
- Format: tissue-based
READOUT NAME: Ki (nM)
Numbers only; they are read as nM.

**Query** Param item = CNC1(c2ccccc2Cl)CCCCC1=O (stereo unspecified) ; retrieve measured Ki.
**Result** 180

----------
- TARGET: Glutamate NMDA receptor
- ASSAY EXPLANATION: Displacement of [3H]-MK801 from NMDA receptor in Sprague-Dawley rat cerebellum by liquid scintillation counting method
- Format: tissue-based
READOUT NAME: pKi
pKi field: float, defined as -log10 of concentration (mol/L).

**Query** pKi lookup needed for CNC1(c2ccccc2Cl)CCCCC1=O (stereo unspecified) , thanks.
**Result** 6.74

----------
- TARGET: Glutamate NMDA receptor; GRIN1/GRIN2A (Homo sapiens, UniProt Q05586+Q12879)
- Sequence (Q12879 whole entry, other chains not shown): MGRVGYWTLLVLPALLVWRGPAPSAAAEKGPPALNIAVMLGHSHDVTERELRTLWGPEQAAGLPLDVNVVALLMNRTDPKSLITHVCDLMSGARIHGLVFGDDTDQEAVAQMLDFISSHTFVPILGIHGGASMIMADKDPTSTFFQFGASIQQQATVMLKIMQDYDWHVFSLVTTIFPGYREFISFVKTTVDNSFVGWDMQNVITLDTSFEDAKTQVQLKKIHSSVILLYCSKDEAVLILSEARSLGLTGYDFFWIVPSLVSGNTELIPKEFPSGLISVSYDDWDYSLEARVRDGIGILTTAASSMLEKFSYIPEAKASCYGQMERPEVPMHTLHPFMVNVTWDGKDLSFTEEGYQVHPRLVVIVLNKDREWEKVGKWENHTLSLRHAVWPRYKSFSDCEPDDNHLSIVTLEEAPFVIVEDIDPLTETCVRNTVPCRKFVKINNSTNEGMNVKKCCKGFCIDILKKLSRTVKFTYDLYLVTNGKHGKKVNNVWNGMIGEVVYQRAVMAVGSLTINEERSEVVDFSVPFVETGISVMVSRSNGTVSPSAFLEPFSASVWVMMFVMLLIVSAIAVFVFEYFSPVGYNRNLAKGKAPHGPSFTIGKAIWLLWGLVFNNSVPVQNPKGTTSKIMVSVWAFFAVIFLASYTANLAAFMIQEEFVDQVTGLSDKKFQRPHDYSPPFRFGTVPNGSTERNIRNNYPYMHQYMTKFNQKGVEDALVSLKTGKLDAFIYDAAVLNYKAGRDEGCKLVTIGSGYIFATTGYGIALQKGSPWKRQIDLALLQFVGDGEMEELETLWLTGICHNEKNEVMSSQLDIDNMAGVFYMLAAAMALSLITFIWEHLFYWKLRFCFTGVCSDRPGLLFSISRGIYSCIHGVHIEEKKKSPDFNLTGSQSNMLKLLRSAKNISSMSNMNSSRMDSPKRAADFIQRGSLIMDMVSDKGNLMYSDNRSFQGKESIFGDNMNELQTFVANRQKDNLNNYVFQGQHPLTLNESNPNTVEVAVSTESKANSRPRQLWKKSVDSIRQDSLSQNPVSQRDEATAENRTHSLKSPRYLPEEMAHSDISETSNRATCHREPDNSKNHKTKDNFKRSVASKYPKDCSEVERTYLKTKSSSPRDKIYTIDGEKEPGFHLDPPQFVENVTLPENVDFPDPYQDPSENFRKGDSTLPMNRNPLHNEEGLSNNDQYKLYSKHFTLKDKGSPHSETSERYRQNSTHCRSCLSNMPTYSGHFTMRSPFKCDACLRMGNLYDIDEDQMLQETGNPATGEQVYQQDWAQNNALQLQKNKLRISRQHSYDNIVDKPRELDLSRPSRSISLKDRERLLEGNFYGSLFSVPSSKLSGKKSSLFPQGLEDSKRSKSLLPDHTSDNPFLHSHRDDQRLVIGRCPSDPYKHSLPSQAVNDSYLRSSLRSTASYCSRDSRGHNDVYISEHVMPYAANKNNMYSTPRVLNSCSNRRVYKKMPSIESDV
- ASSAY EXPLANATION: Displacement of [3H]-MK801 from human forebrain […] expressed in HEK293 cells by […]
READOUT NAME: pKi
Please report pKi as the negative decimal logarithm of the molar concentration, giving only the number.

**Query** Item under review: CNC1(c2ccccc2Cl)CCCCC1=O (stereo unspecified) . Reported pKi?
**Result** 6.74

----------
- ASSAY EXPLANATION: Bioavailability in human at 0.5 mg/kg, IM
- Type: ADME, organism-based
- CONDITION SUMMARY: in vivo
READOUT NAME: bioavailability (%)
State the answer as a number, implicitly in %.

**Query** Data request, read-out bioavailability, for CNC1(c2ccccc2Cl)CCCCC1=O (stereo unspecified)
**Result** 93

----------
- ASSAY EXPLANATION: Drug elimination in human urine assessed as metabolically unchanged compound
- Type: ADME
- CONDITION SUMMARY: read-out: Drug excretion
READOUT NAME: dose excreted (%)
Record the value in %, omitting the unit from your answer.

**Query** Consider the compound CNC1(c2ccccc2Cl)CCCCC1=O (stereo unspecified) and give its measured dose excreted.
**Result** 2

----------
- ASSAY EXPLANATION: Protein binding in human plasma
- Type: ADME, cell-free
- CONDITION SUMMARY: read-out: PPB (converted)
READOUT NAME: fraction unbound
Just the number, please, no unit after it.

**Query** Could you share which fraction unbound value was measured for CNC1(c2ccccc2Cl)CCCCC1=O (stereo unspecified) ?
**Result** 0.88

----------
Answer each item with its documented pKi.
- TARGET: Glutamate NMDA receptor
- ASSAY EXPLANATION: Displacement of [3H]-MK801 from NMDA receptor in rat brain homogenate
- Format: tissue-based
The value called pKi is obtained by taking minus log10 of the concentration in mol/L.

**Query** Recall the recorded pKi for `N[C@]1(c2ccccc2Cl)CCCCC1=O` with Glutamate NMDA receptor and state it.
**Result** 5.77

**Query** Thanks! And `CN[C@@]1(c2ccccc2Cl)CCCCC1=O` ?
**Result** 5.85

**Query** What would you report for `CN[C@]1(c2ccccc2Cl)CCCCC1=O` ?
**Result** 6.52

----------
- TARGET: Glutamate NMDA receptor
- ASSAY EXPLANATION: Displacement of [3H]-MK801 from NMDA receptor in rat spinal cord incubated for 45 mins by liquid scintillation spectrometry
- Type: tissue-based
READOUT NAME: pKi
Here pKi is given on a logarithmic scale as minus log10 of the concentration in mol/L.

**Query** Sample CNC1(c2ccccc2Cl)CCCCC1=O (stereo unspecified) [KETAMINE] — what was its pKi?
**Result** 6.74

----------
- TARGET: Glutamate NMDA receptor
- ASSAY EXPLANATION: Inhibition of NMDAR-mediated excitatory postsynaptic potential in Sprague-Dawley rat hippocampus CA1 region by electrophysiology
READOUT NAME: pIC50
Worth noting: pIC50 values are minus log10 of concentrations stated in mol/L.

**Query** Which value of pIC50 has been reported for CNC1(c2ccccc2Cl)CCCCC1=O (stereo unspecified) [KETAMINE] in the records?
**Result** 5.00

----------
- ASSAY EXPLANATION: Bioavailability in REC dosed human
- Type: ADME, organism-based
- CONDITION SUMMARY: in vivo
READOUT NAME: bioavailability (%)
Enter your answer as a number in %; do not include the unit.

**Query** State the recorded bioavailability for this entry: CNC1(c2ccccc2Cl)CCCCC1=O (stereo unspecified)
**Result** 11

----------
- ASSAY EXPLANATION: Elimination half life in human
- Type: ADME
- CONDITION SUMMARY: read-out: beta t1/2 (converted)
READOUT NAME: half-life

**Query** # lookup: half-life of CNC1(c2ccccc2Cl)CCCCC1=O (stereo unspecified)
**Result** 2 h

----------
- TARGET: Glutamate NMDA receptor
- ASSAY EXPLANATION: Displacement of [3H]-MK801 from NMDA receptor in rat forebrain homogenate incubated for 2 hrs in presence of Mg2+ by liquid scintillation counting method
- Assay type: tissue-based
READOUT NAME: pKi
Give only the number. pKi is defined as minus log10 of concentration in molar units.

**Query** Would you kindly share the measured pKi for CNC1(c2ccccc2Cl)CCCCC1=O (stereo unspecified) ?
**Result** 6.74

----------
- TARGET: Glutamate NMDA receptor
- ASSAY EXPLANATION: Displacement of [3H]-MK801 from NMDA receptor in rat brain membranes incubated for 2 hrs in presence of Mg2+/glumate/glycine by radioligand binding assay
- Type: cell membranes, Membrane
READOUT NAME: pKi
API: returns pKi as number; meaning -log10 of concentration in mol/L.

**Query** Reported pKi for CNC1(c2ccccc2Cl)CCCCC1=O (stereo unspecified) : what is it?
**Result** 6.74

----------
- TARGET: Glutamate NMDA receptor
- ASSAY EXPLANATION: Displacement of [3H]-MK801 from NMDA receptor in rat whole brain homogenate incubated for 2 hrs in presence of Mg2+ by liquid scintillation counting method
- Format: tissue-based
READOUT NAME: pKi
As a rule, pKi stands for the negative log10 of the concentration, concentration in M.

**Query** Bench note: what pKi did CNC1(c2ccccc2Cl)CCCCC1=O (stereo unspecified) show?
**Result** 6.74

----------
- ASSAY EXPLANATION: Displacement of [3H]-MK801 from NMDA receptor in dog brain homogenate incubated for 45 mins by liquid scintillation spectrometry
- Type: tissue-based, Canis lupus familiaris
READOUT NAME: pKi
// returns pKi (minus log10 of molar concentration), number only

**Query** Can you look up the measured pKi of CNC1(c2ccccc2Cl)CCCCC1=O (stereo unspecified) for me?
**Result** 6.74

----------
- ASSAY EXPLANATION: Cmax in human at 2 mg/kg, iv measured after 1 mins
- Type: ADME, organism-based
- Parameters: route intravenous, time 1 min, dose 2 mg/kg
- CONDITION SUMMARY: in vivo
READOUT NAME: Cmax
Please make sure the unit comes right after the number.

**Query** Consider the compound CNC1(c2ccccc2Cl)CCCCC1=O (stereo unspecified) [KETAMINE] and give its measured Cmax.
**Result** 7.6 µM
